Target: T1, macaca IL6R-his protein (macaca mulatta)
T1 chain: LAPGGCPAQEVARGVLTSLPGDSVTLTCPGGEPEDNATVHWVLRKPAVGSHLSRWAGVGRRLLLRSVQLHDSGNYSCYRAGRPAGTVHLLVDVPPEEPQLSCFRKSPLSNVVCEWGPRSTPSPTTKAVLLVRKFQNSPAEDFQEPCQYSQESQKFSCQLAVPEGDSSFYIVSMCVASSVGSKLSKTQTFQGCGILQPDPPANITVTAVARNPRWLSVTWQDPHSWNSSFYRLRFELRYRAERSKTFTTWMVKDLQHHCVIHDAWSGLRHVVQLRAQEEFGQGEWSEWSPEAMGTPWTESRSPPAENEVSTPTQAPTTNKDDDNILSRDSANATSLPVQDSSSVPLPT
Assay: indirect ELISA on plate-coated macaca IL6R-his
Please respond with reported EC50 for every item in the list.
Dear colleague, please return just the value in nM, with no unit written.

Query string: Which value of EC50 has been reported for mouse anti-IL6R monoclonal antibody 1B5 (antibody, V domains shown, Mouse hybridoma mAb) VH: QVQLQQPGAELVKPGASVKLSCKASGYTFTSYWMHWVKQRPGQGLEWIGEINPSNGRTNYNENFKSKATLTVDKSSSTAYMQLSSLTSEDSAVYYCARLNTHYVFDYWGQGTTLTVSS VL: EIVLTQSPTILAASPGEKITFTCSVSSSISSNYLHWYQQKPGFSPKLLIYRTSNLASGVPARFSGSGSGTSYSLTIGTMEAEDVATYYCQQGSGIPFTFGSGTKLEIK in the records?
Result string: 0.205

Query string: What value of EC50 has been reported for the following binder? mouse anti-IL6R monoclonal antibody 1F7 (antibody, V domains shown, Mouse hybridoma mAb) VH: QVQLQQPGAELVKPGASVKLSCKASDYTFTSYWMHWVKQRPGQGLEWIGEINPSNGRTNYNEKFKNKATLTVDKSSSTAYVQLYSLTSEDSAVYYCARLSIHYVFDYWGQGTTLTVSS VL: ELVLTQSPTTMAASPGEKITFTCSASSSISSNYLHWYQQKPGFSPKLLISGTSNLASGVPPRFSGSGSGTSYSLTIVTMEAEDVATYYCQQGSGIPFTFGSGTKLEIK
Result string: 0.14

Query string: I would be grateful if you could share the reported EC50 for Tocilizumab (antibody, human IgG1, kappa, V domains shown, In house made; also called benchmark; Actemra) VH: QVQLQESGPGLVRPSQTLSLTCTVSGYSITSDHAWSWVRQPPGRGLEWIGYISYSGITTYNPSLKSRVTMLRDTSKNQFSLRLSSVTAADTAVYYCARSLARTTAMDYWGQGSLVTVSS VL: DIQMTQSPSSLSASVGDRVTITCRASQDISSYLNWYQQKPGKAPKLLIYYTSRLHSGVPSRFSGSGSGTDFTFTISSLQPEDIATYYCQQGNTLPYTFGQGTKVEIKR .
Result string: 0.0571

Query string: Suppose we examine the binder mouse anti-IL6R monoclonal antibody 3C2 (antibody, V domains shown, Mouse hybridoma mAb) VH: QVQLQQPGTELVKPGASVKLSCKASGYTFTTYWIHWVKQRPGQGLEWIGEINPSNGRTNYNEHFKSKATLTVDKSSSTASMQLSSLTSADSAVYYCARLNTHYVFDSWGQGTTLTVSS VL: EIVLTQSPTTMAASPGEKITITCSASSSISSNYLHWYQQKPGFSPKLLIYRTSNLASGVPTHFSGSGSGTSYSLTIGTMEAEDVATYYCQQGSGIPFTFGSGTKLEIK ; what EC50 value has been reported?
Result string: 0.296

FYI, the data here is from patent US20230167182A1.
